Data provenance is ChEMBL document CHEMBL1833884.

- assay: Volume of distribution at steady state in CD rat at 1 mg/kg, iv
- Format: ADME, organism-based
- Parameters: dose 1 mg/kg, route intravenous
- setup_conditions: in vivo, read-out: Vdss
Reported Vd values for the following compounds.
Mention the unit after the number when you answer.

smiles_representation | Vd
CC(C)Oc1ccc(-c2nc(-c3cccc4c3OCCN(C(CO)CO)C4)no2)cc1C#N | 3.3 L/kg
Cc1c(-c2noc(-c3ccc(OC(C)C)c(C#N)c3)n2)ccc2c1CCN(C(CO)CO)C2 | 4.1 L/kg
Cc1c(-c2noc(-c3ccc(OC(C)C)c(C#N)c3)n2)ccc2c1CCN(CC(=O)N[C@@H](C)CO)C2 | 4.4 L/kg
CC(C)Oc1ncc(-c2nc(-c3ccc4c(c3)CCNCC4)no2)cc1C#N | 9.7 L/kg
CC(C)Oc1ccc(-c2nc(-c3ccc4c(c3)CCN(C(CO)CO)CC4)no2)cc1C#N | 7.6 L/kg

### Prompt Give Vd for the following compound: CC(C)Oc1ccc(-c2nc(-c3ccc4c(c3)CCN(C(CO)CO)C4)no2)cc1C#N
### Response 3.7 L/kg

### Prompt Give Vd for the following compound: Cc1c(-c2noc(-c3ccc(OC(C)C)c(C#N)c3)n2)cnc2c1CCN(C(CO)CO)C2
### Response 3.3 L/kg

----------
- System: MDR1 (P-glycoprotein), human
- assay: Efflux ratio of permeability in dog MDCK2 cells expressing human MDR1
- Type: ADME, cell-based, Canis lupus familiaris, MDCK-II
- setup_conditions: MDCK-MDR1
recorded_metric: efflux ratio
Reply with the value as a number alone.

### Prompt Give efflux ratio for the following molecule: Cc1c(-c2noc(-c3ccc(OC(C)C)c(C#N)c3)n2)ccc2c1CCN(CCC(=O)O)C2
### Response 6

----------
Reported EC50 values for the following molecules.
- target_under_test: Sphingosine 1-phosphate receptor 5 (Homo sapiens, UniProt Q9H228)
- Sequence (Q9H228 whole entry): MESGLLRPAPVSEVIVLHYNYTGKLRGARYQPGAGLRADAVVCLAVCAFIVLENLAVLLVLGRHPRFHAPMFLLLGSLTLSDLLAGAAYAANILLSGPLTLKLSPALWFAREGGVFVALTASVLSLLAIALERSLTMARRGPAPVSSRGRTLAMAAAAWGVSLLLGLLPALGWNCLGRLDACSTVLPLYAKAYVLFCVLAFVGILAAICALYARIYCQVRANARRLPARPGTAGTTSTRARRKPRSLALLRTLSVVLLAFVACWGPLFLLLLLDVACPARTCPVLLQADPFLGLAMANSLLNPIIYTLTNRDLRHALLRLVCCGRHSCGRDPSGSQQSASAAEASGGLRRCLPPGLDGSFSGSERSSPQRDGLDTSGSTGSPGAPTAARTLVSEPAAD
- assay: Agonist activity at human S1P5 receptor expressed in CHO-K1 aequorin cells assessed as calcium accumulation of by luminescence assay in presence of cofactor coelenterazine
- Type: functional, cell-based
Expressed in µM, but write only the number.

smiles_representation | measurement_units | EC50
Cc1c(-c2noc(-c3ccc(OC(C)C)c(C#N)c3)n2)ccc2c1CCN(C(CO)CO)C2 | µM | 0.02

From here, focus on the item given below.
### Prompt Give EC50 for the following molecule: Cc1c(-c2noc(-c3ccc(OC(C)C)c(C#N)c3)n2)ccc2c1CCN(CCC(=O)O)C2
### Response 0.162
